Origin of values: patent US12528837B2

Test system: HK-2 cells
Assay: In vitro renal cell toxicity assay (HK-2)
Format: cell-based
Method: The in vitro renal cell toxicity assay was performed according to the following protocol. […] Cells were seeded at 7,500 cells per well in 96-well plates and allowed to adhere overnight. […] Water and DMSO levels were kept constant at 5% and 0.5% respectively. The test compounds were incubated with cells for 24 h at 37° C. […] Media only background values were subtracted before the data was analysed using GraphPad Prism. […] The bottom of the curve was constrained to zero and IC50 values were determined. […]
Where a SMILES comes first, the peptide text is derived from it. Bridges are numbered along the chain shown (N, C = ends). [ ]: non-standard residue; d: D form. The star is where a group is joined. X14 = NC[C@@H](CC(=O)*)c1cccc(-c2ccsc2)c1; X18 = NC[C@@H](CC(=O)*)c1cc(Cl)cc(Cl)c1; X3 = CC(C)c1cccc([C@@H](CN)CC(=O)*)c1; X1 = NC[C@@H](CC(=O)*)c1cccc(Cl)c1; X7 = NC[C@H](CC(=O)*)c1cccc(Cl)c1; dNle = CCCC[C@@H](N)C(=O)O; Dab = NCC[C@H](N)C(=O)O; Abu = CC[C@H](N)C(=O)O; Dap = NC[C@H](N)C(=O)O
Examples of compounds with documented HK-2 rel to PMB follow.
parameter: HK-2 rel to PMB

compound="CC(C)C[C@@H]1NC(=O)[C@@H](Cc2ccccc2)NC(=O)[C@H](CCN)NC(=O)[C@@H](NC(=O)[C@H](CN)NC(=O)[C@@H](NC(=O)C[C@@H](CN)c2cccc(Cl)c2)[C@@H](C)O)CCNC(=O)[C@H]([C@@H](C)O)NC(=O)[C@H](CCN)NC(=O)[C@H](CCN)NC1=O [Example 6] (X7-T[Dap][Dab][Dab][dF]L[Dab][Dab]T; lactam 3-C)" parameter="HK-2 rel to PMB" value=7.8
compound="CC[C@@H]1NC(=O)[C@@H](CC(C)C)NC(=O)[C@H](CCN)NC(=O)[C@@H](NC(=O)[C@H](CN)NC(=O)[C@@H](NC(=O)C[C@H](CN)c2cccc(-c3ccsc3)c2)[C@@H](C)O)CCNC(=O)[C@H]([C@@H](C)O)NC(=O)[C@H](CCN)NC(=O)[C@H](CCN)NC1=O [Example 30] (X14-T[Dap][Dab][Dab][dL][Abu][Dab][Dab]T; lactam 3-C)" parameter="HK-2 rel to PMB" value=37.5
compound="CC(C)C[C@H]1NC(=O)[C@H](CCN)NC(=O)[C@@H](NC(=O)[C@H](CN)NC(=O)[C@@H](NC(=O)C[C@H](CN)c2cccc(C(C)C)c2)[C@@H](C)O)CCNC(=O)[C@H]([C@@H](C)O)NC(=O)[C@H](CCN)NC(=O)[C@H](CCN)NC(=O)[C@H]([C@@H](C)O)NC1=O [Example 19] (X3-T[Dap][Dab][Dab][dL]T[Dab][Dab]T; lactam 3-C)" parameter="HK-2 rel to PMB" value=101.4
compound="CC(C)C[C@@H]1NC(=O)[C@@H](CC(C)C)NC(=O)[C@H](CCN)NC(=O)[C@@H](NC(=O)[C@H](CN)NC(=O)[C@@H](NC(=O)C[C@H](CN)c2cccc(C(C)C)c2)[C@@H](C)O)CCNC(=O)[C@H]([C@@H](C)O)NC(=O)[C@H](CCN)NC(=O)[C@H](CCN)NC1=O [Example 15] (X3-T[Dap][Dab][Dab][dL]L[Dab][Dab]T; lactam 3-C)" parameter="HK-2 rel to PMB" value=52.1
compound="CCCC[C@H]1NC(=O)[C@H](CCN)NC(=O)[C@@H](NC(=O)[C@H](CN)NC(=O)[C@@H](NC(=O)C[C@H](CN)c2cc(Cl)cc(Cl)c2)[C@@H](C)O)CCNC(=O)[C@H]([C@@H](C)O)NC(=O)[C@H](CCN)NC(=O)[C@H](CCN)NC(=O)[C@H](CC)NC1=O [Example 28] (X18-T[Dap][Dab][Dab][dNle][Abu][Dab][Dab]T; lactam 3-C)" parameter="HK-2 rel to PMB" value=68.5
compound="CC(C)C[C@@H]1NC(=O)[C@@H](Cc2ccccc2)NC(=O)[C@H](CCN)NC(=O)[C@@H](NC(=O)[C@H](CN)NC(=O)[C@@H](NC(=O)C[C@H](CN)c2cccc(Cl)c2)[C@@H](C)O)CCNC(=O)[C@H]([C@@H](C)O)NC(=O)[C@H](CCN)NC(=O)[C@H](CCN)NC1=O [Example 5] (X1-T[Dap][Dab][Dab][dF]L[Dab][Dab]T; lactam 3-C)" parameter="HK-2 rel to PMB" value=11.6
